Readings of Accumulation counts for the listed molecules
Organism: Rattus norvegicus
Experiment: Motor activity in reserpinized rats at the biochemical ED100 dose level expressed as accumulation counts per 60 min
Assay type: functional

Sample records with Accumulation counts:
>>> reported_value("CCCN(CCC)CC1Cc2cccc(O)c2C1 (stereo not given)")
89
>>> reported_value("CCCN(CCC)C1Cc2ccc(O)cc2C1 (stereo not given)")
89
>>> reported_value("CCCN(CCC)C1CCc2c(O)cccc2C1 (stereo not given)")
76
>>> reported_value("CCCN(CCC)C1Cc2cccc(O)c2C1 (stereo not given)")
108

Next:
Ask: Form field: reported Accumulation counts of CN1CCc2cccc3c2[C@H]1Cc1ccc(O)c(O)c1-3
Result: 64
